Record type: pEC50 measurement. Applies to: Hexokinase-4 (Homo sapiens)
One number for each entry, as −log10 of the molar value.

Study these solved cases before continuing.
Cc1cc2c(Oc3cnc(C(=O)N4CC(C)(C)C4)cn3)cc(C(=O)Nc3cnccn3)cc2o1 | 6.15
Cc1cnc(NC(=O)c2cc(Oc3cnc(C(=O)N4CCCC4)cn3)c3cc(C)oc3c2)cn1 | 7.19
Cc1cnc(NC(=O)c2cc(Oc3cnc(C(=O)N4CCC4)cn3)c3cc(C)oc3c2)cn1 | 7.07
Cc1ccc(Oc2cc(C(=O)Nc3cnc(C)cn3)cc3oc(C)cc23)cc1 | 5.18
COc1cnc(NC(=O)c2cc(Oc3cnc(C(=O)N(C)C)cn3)c3cc(C)oc3c2)cn1 | 6.90

[in] Recall the recorded pEC50 for `Cc1cc2c(Oc3cnc(C(=O)N4CC(C)C4)cn3)cc(C(=O)Nc3cnccn3)cc2o1` with Hexokinase-4 (Homo sapiens) and state it.
Sequence (P35557 whole entry): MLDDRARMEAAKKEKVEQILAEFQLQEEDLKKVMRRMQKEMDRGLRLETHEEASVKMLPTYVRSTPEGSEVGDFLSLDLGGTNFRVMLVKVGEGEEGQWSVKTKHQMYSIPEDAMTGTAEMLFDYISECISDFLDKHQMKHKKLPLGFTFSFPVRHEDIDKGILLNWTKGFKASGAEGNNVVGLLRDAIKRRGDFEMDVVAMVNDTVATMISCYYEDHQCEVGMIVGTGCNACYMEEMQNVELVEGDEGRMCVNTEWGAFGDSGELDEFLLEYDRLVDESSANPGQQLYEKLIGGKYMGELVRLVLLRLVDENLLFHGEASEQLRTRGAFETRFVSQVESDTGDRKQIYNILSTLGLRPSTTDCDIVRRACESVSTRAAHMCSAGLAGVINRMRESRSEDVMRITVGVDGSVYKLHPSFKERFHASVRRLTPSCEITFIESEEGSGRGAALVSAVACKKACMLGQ
[out] 6.41

---

Record type: EC50 measurement. Applies to: Hexokinase-4 (Homo sapiens)
Numbers only, in nM.

COCc1ccc(Oc2cc3[nH]c(-c4ccccn4)nc3cc2[C@H]2CCCN2C(C)=O)cn1 | 88
CCN(C)C(=O)c1cnc(Oc2cc(C(=O)Nc3cnc(C)cn3)cc3oc(C)cc23)cn1 | 153
COc1ccc2nc(NC(=O)[C@H](CC3CCCC3)c3ccc(S(=O)(=O)N4CCN(C)CC4)cc3)sc2n1 | 122

# input for lookup
[in] Quick one: EC50 of `Cc1csc(NC(=O)c2cc(Sc3nccn3C)c(F)cc2N)n1` ?
[out] 66

---

Please provide measured CLint scaled for the entries that follow.
test: Intrinsic clearance in human liver microsomes; format: ADME; conditions: read-out: CLH

Study these solved cases before continuing.
Cc1cc2c(Oc3cnc(C(=O)N4CC(C)(O)C4)cn3)cc(C(=O)Nc3cnccn3)cc2o1 | < 8 mL/min/kg
Cc1cc2c(Oc3cnc(C(=O)N4CC(C)C4)cn3)cc(C(=O)Nc3cnccn3)cc2o1 | < 9.6 mL/min/kg
Cc1cnc(NC(=O)c2cc(Oc3ncc(C(=O)N(C)C)cn3)c3cc(C)oc3c2)cn1 | < 8 mL/min/kg
Cc1ccc(NC(=O)c2cc(Oc3cnc(C(=O)N(C)C)cn3)c3cc(C)oc3c2)nc1 | < 10.6 mL/min/kg
Cc1cnc(NC(=O)c2cc(Oc3cnc(C(=O)N4CCCC4)cn3)c3cc(C)oc3c2)cn1 | < 8.1 mL/min/kg
Cc1cnc(NC(=O)c2cc(Oc3cnc(C(=O)N4CCC4)cn3)c3cc(C)oc3c2)cn1 | < 9.3 mL/min/kg

Hi there! I need CLint scaled for each item below, if you can.
1. COC1CN(C(=O)c2cnc(Oc3cc(C(=O)Nc4cnccn4)cc4oc(C)cc34)cn2)C1
2. Cc1cnc(NC(=O)c2cc(Oc3cnc(C(=O)N(C)C)nc3)c3cc(C)oc3c2)cn1
3. Cc1cc2c(Oc3cnc(C(=O)N(C)C)cn3)cc(C(=O)Nc3ccn(C)n3)cc2o1
4. COc1cnc(NC(=O)c2cc(Oc3cnc(C(=O)N(C)C)cn3)c3cc(C)oc3c2)cn1
5. CCN(C)C(=O)c1cnc(Oc2cc(C(=O)Nc3cnc(C)cn3)cc3oc(C)cc23)cn1
6. Cc1cnc(NC(=O)c2cc(Oc3cnc(C(=O)N(C)C)cn3)c3cc(C)oc3c2)cn1

[out]
1. < 9.2 mL/min/kg
2. < 8 mL/min/kg
3. < 8.2 mL/min/kg
4. < 8 mL/min/kg
5. < 8 mL/min/kg
6. < 8.5 mL/min/kg

---

test: Passive permeability across RRCK cells; format: ADME, cell-based, Canis lupus familiaris, MDCKII-LE; conditions: dog, MDCK; read-out: permeability
RESULT_TYPE: Papp
Include the unit after the number when you answer.

Study these solved cases before continuing.
COc1cnc(NC(=O)c2cc(Oc3cnc(C(=O)N(C)C)cn3)c3cc(C)oc3c2)cn1 | 15.8 ×10⁻⁶ cm/s
Cc1cnc(NC(=O)c2cc(Oc3ccc(S(C)(=O)=O)cc3)c3cc(C)oc3c2)cn1 | 7.6 ×10⁻⁶ cm/s
Cc1cc2c(Oc3cnc(C(=O)N(C)C)cn3)cc(C(=O)Nc3ccn(C)n3)cc2o1 | 15.4 ×10⁻⁶ cm/s

Hi there! I need Papp for each item below, if you can.
1. Cc1cnc(NC(=O)c2cc(Oc3ncc(C(=O)N(C)C)cn3)c3cc(C)oc3c2)cn1
2. Cc1ccc(NC(=O)c2cc(Oc3cnc(C(=O)N(C)C)cn3)c3cc(C)oc3c2)nc1

[out]
1. 34.7 ×10⁻⁶ cm/s
2. 21.5 ×10⁻⁶ cm/s
